Catalogue of pKd readings, one per entry.
target: T1, human GPC3 recombinant protein (purchased from Shanghai Rui Jin Biotechnology Co., Ltd.) (human, UniProt P51654 25-559, limits assumed); test: SPR Biacore T200, antibody captured by anti-human IgG (Fc), GPC3 as analyte, single-cycle kinetics, 25 °C
T1 construct: Bought recombinant protein; also called huGPC3; antigen GPC3
FYI, pKd means -log10 of a concentration in mol per litre.

Example binders with recorded pKd:
P7D4 mutant single chain antibody am20 (scFv, not shown: a dimerising Fc or GST) scFv: QVQLQESGGGLVQPGRSLRLSCAASGFTFSTYAMNWVRQAPGKGLEWVSAISMSGESTYYADSVKGRFTISRDNSKNTLYLQMNSLRAEDTAVYYCAKDRRGSHADAFDVWGQGTLVTVSSGGGGSGGGGSGGGGSQSALTQPPSASGSPGQSVTISCTGTSSDVGGYNYVSWYQQYPGKAPKLLIYGNSNRPSGVPDRFSGSKSGTSASLAITGLQAEDGADYYCQSYDSSLRVVFGGGTKVTVLG    9.51
P7D4 mutant single chain antibody am14 (scFv, not shown: a dimerising Fc or GST) scFv: QVQLQESGGGLVQPGRSLRLSCAASGFTFSTYAMAWVRQAPGKGLEWVSEISSSGSRTYYADSVKGRFTISRDNSKNTLYLQMNSLRAEDTAVYYCAKDRRGSHADAFDVWGQGTLVTVSSGGGGSGGGGSGGGGSQSALTQPPSASGSPGQSVTISCTGTSSDVGGYNYVSWYQQYPGKAPKLLIYGNSNRPSGVPDRFSGSKSGTSASLAITGLQAEDGADYYCQSYDSSLRVVFGGGTKVTVLG    10.19
P7D4 mutant single chain antibody am35 (scFv, not shown: a dimerising Fc or GST) scFv: QVQLQESGGGLVQPGRSLRLSCAASGFTFSSYAMHWVRQAPGKGLEWVSAISSSGGSTYYADSVKGRFTISRDNSKNTLYLQMNSLRAEDTAVYYCAKDRRGSHADAFDVWGQGTLVTVSSGGGGSGGGGSGGGGSQSALTQPPSASGSPGQSVTISCTGTSSDVGHKFPVSWYQQYPGKAPKLLIYKNLLRPSGVPDRFSGSKSGTSASLAITGLQAEDGADYYCQSYDSSLRVVFGGGTKVTVLG    10.15

The binder listed as P7D4 mutant single chain antibody am4 (scFv, not shown: a dimerising Fc or GST) scFv: QVQLQESGGGLVQPGRSLRLSCAASGFTFSTYAMTWVRQAPGKGLEWVSSISSSGESTYYADSVKGRFTISRDNSKNTLYLQMNSLRAEDTAVYYCAKDRRGSHADAFDVWGQGTLVTVSSGGGGSGGGGSGGGGSQSALTQPPSASGSPGQSVTISCTGTSSDVGGYNYVSWYQQYPGKAPKLLIYGNSNRPSGVPDRFSGSKSGTSASLAITGLQAEDGADYYCQSYDSSLRVVFGGGTKVTVLG has a reported pKd of 10.12

The binder listed as P7D4 mutant single chain antibody am42 (scFv, not shown: a dimerising Fc or GST) scFv: QVQLQESGGGLVQPGRSLRLSCAASGFTFSSYAMHWVRQAPGKGLEWVSAISSSGGSTYYADSVKGRFTISRDNSKNTLYLQMNSLRAEDTAVYYCAKDRRGSHADAFDVWGQGTLVTVSSGGGGSGGGGSGGGGSQSALTQPPSASGSPGQSVTISCTGTSSDVGLMHNVSWYQQYPGKAPKLLIYKSSSRPSGVPDRFSGSKSGTSASLAITGLQAEDGADYYCQSYDSSLRVVFGGGTKVTVLG has a reported pKd of 10.09
